# Test system: Ae. aegypti females mosquitoes
# assay name: Mosquito repellence bioassay (protection period, time until the first bite)
# Type: in vivo
# condition set: dose 0.50 mg/cm^2 on muslin cloth screen over human volunteer's hand, time until first confirmed bite
Please mark 1.0 if the recorded Protection period in hrs @dose 0.50 mg/cm^2 is equal to or greater than 5 h, and 0.0 if it falls below.

Threshold query (Protection period in hrs @dose 0.50 mg/cm^2 >= 5 h) on C[C@@H]1CC(=O)C=C2C(=O)[C@@H]3[C@@H](C3(C)C)[C@]21C (racemic)
1.0

Decide: is the reported value of Protection period in hrs @dose 0.50 mg/cm^2 for CC[C@H]1CC(=O)C=C2C[C@@H]3[C@H]([C@@H]21)C3(C)C equal to or greater than 5 h?
0.0

Is reported Protection period in hrs @dose 0.50 mg/cm^2 greater than or equal to 5 h here: CCOC(=O)[C@H]1[C@@H]2C(=O)C3=CC(=O)C[C@@H](C)[C@]3(C)[C@H]12
0.0

Hi, just wondering whether CC1(C)CC(=O)C=C2C[C@@H]3[C@H]([C@@H]21)C3(C)C shows Protection period in hrs @dose 0.50 mg/cm^2 of 5 h or higher.
0.0

Decide: Protection period in hrs @dose 0.50 mg/cm^2 of C[C@@H]1CC(=O)C=C2C(=O)[C@H]3[C@H](C3(C)C)[C@]21C >= 5 h?
1.0

Kindly determine if Protection period in hrs @dose 0.50 mg/cm^2 recorded for C[C@H]1CC(=O)C=C2C[C@@H]3[C@H]([C@@H]21)C3(C)C is above or exactly 5 h.
1.0

# bool: Protection period in hrs @dose 0.50 mg/cm^2 of CCC[C@H]1CC(=O)C=C2C[C@@H]3[C@H]([C@@H]21)C3(C)C >= 5 h
0.0

Is the recorded value of Protection period in hrs @dose 0.50 mg/cm^2 equal to or greater than 5 h for this compound? CC1=C2C[C@@H]3[C@H](C2CCC1=O)C3(C)C (some centres unmarked)
1.0

Can C=C(C)[C@@H]1CCC2=CC(=O)C[C@@H](C)[C@]2(C)C1 [Natural nootkatone, nootkatone, reference compound] be said to have Protection period in hrs @dose 0.50 mg/cm^2 at or above 5 h?
1.0

Consider the additional compound presented here.
Dear colleague, could you confirm whether CC1(C)[C@@H]2CC3=CC(=O)CCC3[C@@H]21 (some centres unmarked) has Protection period in hrs @dose 0.50 mg/cm^2 at or above 5 h?
1.0
